tested on: HEK293; test: Antiproliferative activity against HEK293 cells assessed as survival after 48 hrs by MTS reduction assay; type: cell-based; conditions: Homo sapiens, HEK293, 48 h
# IC50 listing for each entry below
Provide only the numeric value, understood in µM.

Some solved entries appear below for comparison.
CC[C@H](CO)Nc1nc(Nc2ccc(-c3cccnc3)cc2)c2ncn(C(C)C)c2n1 | 7.4
CC(C)[C@H](CO)Nc1nc(Nc2cccc(-c3cccnc3)c2)c2ncn(C(C)C)c2n1 | 9.2
CC[C@H](CO)Nc1nc(NCc2cccc(-c3ccccn3)c2)c2ncn(C(C)C)c2n1 | 2.8
CC[C@H](CO)Nc1nc(NCc2ccc(-c3ccccn3)cc2)c2ncn(C(C)C)c2n1 | 0.56
CC[C@H](CO)Nc1nc(NCc2ccc(-c3ccncc3)cc2)c2ncn(C(C)C)c2n1 | 1.54
CC(C)[C@H](CO)Nc1nc(Nc2ccc(-c3cccnc3)cc2)c2ncn(C(C)C)c2n1 | 8.3
CC(C)[C@H](CO)Nc1nc(Nc2ccc(-c3ccccn3)cc2)c2ncn(C(C)C)c2n1 | 14.6
CC(C)[C@H](CO)Nc1nc(Nc2cccc(-c3ccccc3)c2)c2ncn(C(C)C)c2n1 | 15.6
CC[C@H](CO)Nc1nc(NCc2ccc(-c3cccnc3)cc2)c2ncn(C(C)C)c2n1 | 2.2
CC[C@H](CO)Nc1nc(Nc2ccc(-c3ccccn3)cc2)c2ncn(C(C)C)c2n1 | 10.4

// query Quick check: IC50 of CC(C)[C@H](CO)Nc1nc(Nc2ccc(-c3ccncc3)cc2)c2ncn(C(C)C)c2n1 ?
// result 6.3

// query Given the entry CC[C@H](CO)Nc1nc(Nc2ccccc2-c2ccccc2)c2ncn(C(C)C)c2n1 , report its measured IC50.
// result 6.6

// query Give the measured IC50 of CC[C@H](CO)Nc1nc(NCc2cccc(-c3ccccc3)c2)c2ncn(C(C)C)c2n1 .
// result 2.5

---

IC50 values for the molecules below.
biological target: Glycogen synthase kinase-3 (Sus scrofa, UniProt B2LUN4+I6LNT8); assay: Inhibition of pig brain GSK3alpha/beta

Check out these entries, answers already filled in.
CC[C@H](CO)Nc1nc(-c2cccnc2)c2ncn(C(C)C)c2n1 | > 100 µM
CC[C@H](CO)Nc1nc(NCc2ccncc2)c2ncn(C(C)C)c2n1 | > 10 µM
CC[C@H](CO)Nc1nc(Nc2cccc(-c3ccccc3)c2)c2ncn(C(C)C)c2n1 (stereo in doubt; 7b) | > 100 µM
CC[C@H](CO)Nc1nc(Nc2ccc(-c3ccccc3)cc2)c2ncn(C(C)C)c2n1 (stereo in doubt; 7f) | > 10 µM
CC[C@H](CO)Nc1nc(NCc2cccc(-c3ccccc3)c2)c2ncn(C(C)C)c2n1 | > 100 µM

// query Recorded IC50 for CC[C@@H](CO)Nc1nc(NCc2ccncc2)c2ncn(C(C)C)c2n1 with Glycogen synthase kinase-3 (Sus scrofa, UniProt B2LUN4+I6LNT8), please?
// result > 10 µM

// query Return IC50 measured with Glycogen synthase kinase-3 (Sus scrofa, UniProt B2LUN4+I6LNT8) given this molecule: CC[C@H](CO)Nc1nc(NCc2cccc(-c3cccnc3)c2)c2ncn(C(C)C)c2n1
// result > 10 µM

// query Please state recorded IC50 (tested on Glycogen synthase kinase-3 (Sus scrofa, UniProt B2LUN4+I6LNT8)) of CC[C@H](CO)Nc1nc(NCc2ccccc2)c2ncn(C(C)C)c2n1 [SELICICLIB]
// result > 10 µM

// query What reported IC50 corresponds to CC[C@H](CO)Nc1nc(NCc2ccc(-c3ccccc3)cc2)c2ncn(C(C)C)c2n1 on Glycogen synthase kinase-3 (Sus scrofa, UniProt B2LUN4+I6LNT8)?
// result > 100 µM

// query What reported IC50 corresponds to CC[C@@H](CO)Nc1nc(NCc2cccnc2)c2ncn(C(C)C)c2n1 on Glycogen synthase kinase-3 (Sus scrofa, UniProt B2LUN4+I6LNT8)?
// result > 10 µM

// query Query for Glycogen synthase kinase-3 (Sus scrofa, UniProt B2LUN4+I6LNT8): what IC50 does the record show for CC[C@H](CO)Nc1nc(-c2ccccc2)c2ncn(C(C)C)c2n1 ?
// result > 100 µM

// query # value lookup — system Glycogen synthase kinase-3 (Sus scrofa, UniProt B2LUN4+I6LNT8), readout IC50, item CC[C@@H](CO)Nc1nc(NCc2ccccn2)c2ncn(C(C)C)c2n1
// result > 33 µM

// query Request - read-out IC50 | tested on Glycogen synthase kinase-3 (Sus scrofa, UniProt B2LUN4+I6LNT8) | molecule CC(C)[C@H](CO)Nc1nc(Nc2cccc(-c3ccccc3)c2)c2ncn(C(C)C)c2n1
// result > 100 µM

// query Give Glycogen synthase kinase-3 (Sus scrofa, UniProt B2LUN4+I6LNT8) IC50 for CC(C)n1cnc2c(Nc3ccc(Br)cc3)nc(-c3cccnc3)nc21
// result > 100 µM

// query What measured IC50 is associated with CC(C)n1cnc2c(Nc3ccc(Br)cc3)nc(-c3ccncc3)nc21 on Glycogen synthase kinase-3 (Sus scrofa, UniProt B2LUN4+I6LNT8)?
// result > 100 µM

// query Test system Glycogen synthase kinase-3 (Sus scrofa, UniProt B2LUN4+I6LNT8); read-out IC50; what value for CC[C@H](CO)Nc1nc(NCc2cccnc2)c2ncn(C(C)C)c2n1 ?
// result > 10 µM

// query Missing value: IC50, Glycogen synthase kinase-3 (Sus scrofa, UniProt B2LUN4+I6LNT8), entry CC[C@H](CO)Nc1nc(Nc2ccccc2-c2ccccc2)c2ncn(C(C)C)c2n1 . Fill in?
// result > 100 µM

// query # get_value(readout= IC50, system= Glycogen synthase kinase-3 (Sus scrofa, UniProt B2LUN4+I6LNT8)) for CC[C@H](CO)Nc1nc(-c2ccncc2)c2ncn(C(C)C)c2n1
// result > 100 µM
